The values you see were collected from PubChem BioAssay (NCI).

Tested on: RXF 393 renal
protocol: NCI tumour cell line growth inhibition, 48 h
Recorded measurements of TGI, one per entry

Look over these answered cases.
CCN(CC)CCn1c(=O)c2c(C)c3oc4ccccc4oc3c(C)c2c1=O : > 100 µM
CCOC1NC(=O)Oc2cc3ccccc3cc21 (stereo not drawn) : > 100 µM
Nc1ccc(COC(O)CN2CCCCC2)cc1[N+](=O)[O-] (stereo not drawn) : > 100 µM
CC1=NOC(=O)/C1=C/c1ccc([N+](=O)[O-])cc1 : > 100 µM
CCN(CC)c1ccc(/C=C2\CCc3ccc([N+](=O)[O-])cc3C2=O)cc1 : > 29.9 µM
CCCCCCCCP(=O)(O)OP(=O)(O)OCC1OC(n2ccc(N)nc2=O)C(O)C1O (stereo not drawn) : > 100 µM
NCCCNOCCCN : > 100 µM
CCCOP(=O)(OCCC)OC(C(F)(F)F)C(F)(F)F : > 100 µM

Lab note: C=CCC1(C(=O)OC(C)(C)C)C(OC)=C(C(=O)OC(C)(C)C)C2C1C(C(=O)OC(C)(C)C)=C(OC)C2(CC=C)C(=O)OC(C)(C)C (stereo not drawn) gave TGI of > 100 µM

Lab note: "CCOC(=O)C(=CNC(=S)N=Nc1c(O)[nH]c2ccccc12)C(=O)OCC" gave TGI of > 100 µM

Lab note: "CC(=O)/C=C/C1=C(c2csc3ccccc23)c2ccccc2CC1" gave TGI of 46.5 µM

Lab note: "COC(=O)Nc1nc2ccc(C(=O)c3ccccc3)cc2[nH]1" gave TGI of 2.19 µM

Lab note: "Cc1ccc(NC(=O)/C(Cc2cc(=O)oc3cc(O)ccc23)=N\NC(C)(C)C)cc1C" gave TGI of > 100 µM

Lab note: "CN(O)C(=O)CCCC(=O)NCC(C)(C)CNC(=O)CCCC(=O)N(C)O" gave TGI of > 100 µM

Lab note: COC(=O)C(Cc1c[nH]c2ccccc12)NP(=O)(O)OCC1OC(n2cc(Br)c(=O)[nH]c2=O)CC1O (stereo not drawn) gave TGI of > 100 µM

Lab note: "COc1ccc(NC(=O)c2sc3nc(C)c(C(=O)/C=C/c4cccc(OC)c4)cc3c2N)cc1" gave TGI of 1.84 µM

Lab note: C1CN(P2(N3CC3)=NP(N3CC3)(N3CC3)=NP(N3CC3)(N3CC3)=N2)CCO1 (stereo not drawn) gave TGI of > 100 µM

Lab note: "Cc1ccc2c(c1)C(=O)c1c-2c(OCCCN(C)C)nc2ccccc12" gave TGI of 12.7 µM
